# EXPERIMENTAL_TARGET: LRRK2 (G2019S) (Homo sapiens, UniProt Q5S007, G2019S)
# Sequence (Q5S007 970-2527 G2019S limits assumed): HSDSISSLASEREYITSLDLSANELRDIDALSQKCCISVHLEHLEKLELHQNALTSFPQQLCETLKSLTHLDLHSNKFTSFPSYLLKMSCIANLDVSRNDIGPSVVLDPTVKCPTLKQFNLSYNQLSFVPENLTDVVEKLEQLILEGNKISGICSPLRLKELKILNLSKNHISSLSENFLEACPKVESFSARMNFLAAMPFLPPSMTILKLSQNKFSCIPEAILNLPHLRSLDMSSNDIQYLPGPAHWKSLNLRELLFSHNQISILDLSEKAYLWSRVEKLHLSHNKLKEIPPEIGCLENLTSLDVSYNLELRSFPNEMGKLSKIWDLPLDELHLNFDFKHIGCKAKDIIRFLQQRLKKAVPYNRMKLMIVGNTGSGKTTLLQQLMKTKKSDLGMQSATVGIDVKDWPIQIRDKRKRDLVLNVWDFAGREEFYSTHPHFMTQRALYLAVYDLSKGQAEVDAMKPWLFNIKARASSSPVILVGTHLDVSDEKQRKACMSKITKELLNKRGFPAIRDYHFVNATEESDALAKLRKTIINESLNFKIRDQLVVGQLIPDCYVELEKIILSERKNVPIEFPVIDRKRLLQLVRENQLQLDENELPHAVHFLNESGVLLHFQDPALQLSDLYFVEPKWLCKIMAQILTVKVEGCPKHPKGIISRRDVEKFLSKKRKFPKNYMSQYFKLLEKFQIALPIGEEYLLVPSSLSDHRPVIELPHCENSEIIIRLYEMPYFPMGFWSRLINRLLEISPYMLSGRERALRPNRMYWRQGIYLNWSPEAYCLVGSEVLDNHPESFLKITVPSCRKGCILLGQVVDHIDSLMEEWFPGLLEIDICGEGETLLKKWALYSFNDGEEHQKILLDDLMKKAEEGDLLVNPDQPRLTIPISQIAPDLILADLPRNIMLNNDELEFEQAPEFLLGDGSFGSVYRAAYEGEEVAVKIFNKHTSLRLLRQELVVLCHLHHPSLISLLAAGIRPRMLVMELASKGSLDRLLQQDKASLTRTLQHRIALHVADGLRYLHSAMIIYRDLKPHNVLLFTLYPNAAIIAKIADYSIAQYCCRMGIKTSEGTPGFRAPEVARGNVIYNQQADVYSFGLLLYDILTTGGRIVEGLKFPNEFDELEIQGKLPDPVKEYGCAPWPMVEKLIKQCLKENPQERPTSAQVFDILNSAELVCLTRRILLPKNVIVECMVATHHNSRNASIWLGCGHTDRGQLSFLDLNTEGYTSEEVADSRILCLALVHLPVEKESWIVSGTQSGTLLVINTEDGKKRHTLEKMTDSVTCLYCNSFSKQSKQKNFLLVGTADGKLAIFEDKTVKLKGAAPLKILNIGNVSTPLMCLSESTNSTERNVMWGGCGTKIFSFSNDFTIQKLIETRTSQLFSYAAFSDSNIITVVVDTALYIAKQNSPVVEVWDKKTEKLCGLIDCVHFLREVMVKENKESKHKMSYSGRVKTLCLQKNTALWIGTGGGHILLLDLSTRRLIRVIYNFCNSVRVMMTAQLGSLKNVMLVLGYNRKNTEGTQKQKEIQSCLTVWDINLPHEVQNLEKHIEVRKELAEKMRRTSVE
# ASSAY_EXPLANATION: LRRK2 G2019S enzyme inhibition, ADP-Glo kinase assay
# Type: biochemical
# Set-up: purchased SignalChem L10-12GG
# DETAILS: ATP 25 μM
MEASUREMENT_TYPE: IC50

[ask] Hello, I am looking for reported IC50 with LRRK2 (G2019S) (Homo sapiens, UniProt Q5S007, G2019S) for `CCNc1nc(Nc2ccc(S(C)(=O)=O)cc2OC)nc2[nH]cc(C(F)(F)F)c12` . Could you help?
[reply] 0.301 to 1 µM

[ask] Item `O=C(c1ccc(Nc2nc(NCC3CC3)c3cc[nH]c3n2)c2c1OCCO2)N1CCOCC1` with LRRK2 (G2019S) (Homo sapiens, UniProt Q5S007, G2019S) - IC50?
[reply] < 0.1 µM

[ask] Notebook: pull reported IC50 for LRRK2 (G2019S) (Homo sapiens, UniProt Q5S007, G2019S), entry CNc1nc(Nc2ccc(S(C)(=O)=O)cc2OC)nc2[nH]ccc12 [Example 4, 2,2,2-trifluoroacetate]
[reply] < 0.1 µM

[ask] Lab note: need IC50 with LRRK2 (G2019S) (Homo sapiens, UniProt Q5S007, G2019S) for entry `COc1cc(S(=O)(=O)N2CCC(N3CCOCC3)CC2)ccc1Nc1nc(NC2CCC2)c2c(C(F)(F)F)c[nH]c2n1` , please look it up.
[reply] 0.101 to 0.3 µM

[ask] Which measured IC50 belongs to `COc1cc(S(=O)(=O)N2CCOCC2)ccc1Nc1nc(NC2CCCCC2)c2c(C#N)c[nH]c2n1` , tested on LRRK2 (G2019S) (Homo sapiens, UniProt Q5S007, G2019S)?
[reply] 0.301 to 1 µM

[ask] Notebook: pull reported IC50 for LRRK2 (G2019S) (Homo sapiens, UniProt Q5S007, G2019S), entry CCNc1nc(Nc2ccc(C(=O)N3CCOCC3)c3c2OCCO3)nc2[nH]ccc12 [Example 58, 2,2,2-trifluoroacetate]
[reply] < 0.1 µM

[ask] Request: IC50, test system LRRK2 (G2019S) (Homo sapiens, UniProt Q5S007, G2019S), entry COc1cc(S(C)(=O)=O)ccc1Nc1nc(NCC2CCC2)c2cc[nH]c2n1 [Example 39, 2,2,2-trifluoroacetate]
[reply] < 0.1 µM

[ask] What IC50 appears in the records for this compound with LRRK2 (G2019S) (Homo sapiens, UniProt Q5S007, G2019S)? `COc1cc(S(=O)(=O)N2CCOCC2)ccc1Nc1nc(NCC2CCC2)c2cc[nH]c2n1`
[reply] < 0.1 µM

[ask] Enter reported IC50 observed with LRRK2 (G2019S) (Homo sapiens, UniProt Q5S007, G2019S) for COc1cc(S(=O)(=O)N2CCC(N3CCOCC3)CC2)ccc1Nc1nc(NC2CCC2)c2cc[nH]c2n1 [Example 23, 2,2,2-trifluoroacetate]
[reply] < 0.1 µM

[ask] Reported IC50 for LRRK2 (G2019S) (Homo sapiens, UniProt Q5S007, G2019S), given `COCCNc1nc(Nc2ccc(S(=O)(=O)N3CCOCC3)cc2OC)nc2[nH]cc(C#N)c12` ?
[reply] < 0.1 µM

[ask] Give IC50 (LRRK2 (G2019S) (Homo sapiens, UniProt Q5S007, G2019S)) of the following compound: COc1cc(S(=O)(=O)N2CCC(N3CCOCC3)CC2)ccc1Nc1nc(NCC2CCCC2)c2cc[nH]c2n1 [Example 41, 2,2,2-trifluoroacetate]
[reply] < 0.1 µM

[ask] Test system LRRK2 (G2019S) (Homo sapiens, UniProt Q5S007, G2019S); read-out IC50; what value for `C=CCNc1nc(Nc2ccc(S(=O)(=O)N3CCC(N4CCOCC4)CC3)cc2OC)nc2[nH]cc(C(F)(F)F)c12` ?
[reply] < 0.1 µM

[ask] Lab note: need IC50 for `C=CCNc1nc(Nc2ccc(S(=O)(=O)N3CCOCC3)cc2OC)nc2[nH]ccc12` on LRRK2 (G2019S) (Homo sapiens, UniProt Q5S007, G2019S), anyone have it?
[reply] < 0.1 µM

[ask] Could you share what IC50 was measured for `COc1cc(S(=O)(=O)N2CCOCC2)ccc1Nc1nc(NC2CCOCC2)c2c(C#N)c[nH]c2n1` , tested on LRRK2 (G2019S) (Homo sapiens, UniProt Q5S007, G2019S)?
[reply] < 0.1 µM

[ask] Kindly state the measured IC50 obtained for CCCNc1nc(Nc2ccc(S(C)(=O)=O)cc2OC)nc2[nH]ccc12 [Example 9, 2,2,2-trifluoroacetate] with LRRK2 (G2019S) (Homo sapiens, UniProt Q5S007, G2019S).
[reply] < 0.1 µM

[ask] Missing value: IC50, LRRK2 (G2019S) (Homo sapiens, UniProt Q5S007, G2019S), entry `COCC(C)(C)Nc1nc(Nc2ccc(S(C)(=O)=O)cc2OC)nc2[nH]ccc12` . Fill in?
[reply] < 0.1 µM

[ask] IC50 of `COc1cc(S(=O)(=O)N2CCOCC2)ccc1Nc1nc(NC2CC2)c2cc[nH]c2n1` on LRRK2 (G2019S) (Homo sapiens, UniProt Q5S007, G2019S)?
[reply] < 0.1 µM

[ask] Give IC50 (LRRK2 (G2019S) (Homo sapiens, UniProt Q5S007, G2019S)) of the following compound: COCCNc1nc(Nc2ccc(S(C)(=O)=O)cc2OC)nc2[nH]ccc12 [Example 21, 2,2,2-trifluoroacetate]
[reply] < 0.1 µM

[ask] Form field: IC50 recorded for `COCCNc1nc(Nc2ccc(C(=O)N3CCOCC3)c3c2OCCO3)nc2[nH]cc(C(N)=O)c12` with LRRK2 (G2019S) (Homo sapiens, UniProt Q5S007, G2019S) (enter value)
[reply] 0.301 to 1 µM

[ask] # query: IC50 | item CCCNc1nc(Nc2ccc(S(=O)(=O)N3CCC(N4CCOCC4)CC3)cc2OC)nc2[nH]ccc12 [Example 8, 2,2,2-trifluoroacetate] | system: LRRK2 (G2019S) (Homo sapiens, UniProt Q5S007, G2019S)
[reply] < 0.1 µM

[ask] Hello, I am looking for reported IC50 with LRRK2 (G2019S) (Homo sapiens, UniProt Q5S007, G2019S) for `COc1cc(S(=O)(=O)N2CCOCC2)ccc1Nc1nc(NC2CC2)c2c(C#N)c[nH]c2n1` . Could you help?
[reply] < 0.1 µM

[ask] Quick check: IC50 on LRRK2 (G2019S) (Homo sapiens, UniProt Q5S007, G2019S), item `CCNc1nc(Nc2ccc(C(=O)N3CCC(N4CCOCC4)CC3)c3c2OCCO3)nc2[nH]cc(C(F)(F)F)c12` ?
[reply] < 0.1 µM

[ask] What is its IC50 for LRRK2 (G2019S) (Homo sapiens, UniProt Q5S007, G2019S)? Entry: `COc1cc(S(=O)(=O)N2CCC(N3CCOCC3)CC2)ccc1Nc1nc(NCCS(C)(=O)=O)c2c(C#N)c[nH]c2n1`
[reply] < 0.1 µM

[ask] // fetch LRRK2 (G2019S) (Homo sapiens, UniProt Q5S007, G2019S) IC50 for `CCCCNc1nc(Nc2ccc(C(=O)N3CCN(C4COC4)CC3)c3c2OCCO3)nc2[nH]cc(C(F)(F)F)c12`
[reply] < 0.1 µM

[ask] Form: Entry = `O=C(c1ccc(Nc2nc(NCC3CCCC3)c3c(C(F)(F)F)c[nH]c3n2)c2c1CCO2)N1CCC(N2CCOCC2)CC1` | System = LRRK2 (G2019S) (Homo sapiens, UniProt Q5S007, G2019S) | IC50 = ____
[reply] < 0.1 µM

[ask] Give IC50 (LRRK2 (G2019S) (Homo sapiens, UniProt Q5S007, G2019S)) of the following compound: `COc1cc(S(=O)(=O)N2CCOCC2)ccc1Nc1nc(NC(C)C)c2c(C(F)(F)F)c[nH]c2n1`
[reply] 0.301 to 1 µM

[ask] Reported IC50 for LRRK2 (G2019S) (Homo sapiens, UniProt Q5S007, G2019S), given `COc1cc(S(=O)(=O)N2CCC(N3CCOCC3)CC2)ccc1Nc1nc(NC2CCC2)c2c(C#N)c[nH]c2n1` ?
[reply] < 0.1 µM

[ask] Form field: IC50 recorded for `O=C(c1ccc(Nc2nc(NCC3CC3)c3c(C(F)(F)F)c[nH]c3n2)c2c1CCO2)N1CCC(N2CCOCC2)CC1` with LRRK2 (G2019S) (Homo sapiens, UniProt Q5S007, G2019S) (enter value)
[reply] < 0.1 µM

[ask] I'm curious: which IC50 was measured for CNc1nc(Nc2ccc(S(=O)(=O)N3CCC(N4CCOCC4)CC3)cc2OC)nc2[nH]ccc12 [Example 3, 2,2,2-trifluoroacetate] tested on LRRK2 (G2019S) (Homo sapiens, UniProt Q5S007, G2019S)?
[reply] < 0.1 µM

Every entry's value here was drawn from patent US20230066011A1.
